assay: Noncompartmental pharmacokinetic parameters (Cmax, Tmax, AUC, Racc) in QD and BID cohorts of Form B; assay type: in vivo, human; conditions: human, plasma, oral, 200 mg, Compound I; 200 mg QD of Form B; Cohort 1; Day 29; read-out: Cmax (Mean)

Mol Smiles	Units Text	Cmax
CC(C)N1CCN(c2ccc(Nc3ncc4cc5n(c4n3)C3(CCCCC3)CNC5=O)nc2)CC1	ng/mL	20.4

---

assay: Pharmacokinetics of Compound I in healthy volunteers after a single dose of Form B of Compound II; assay type: in vivo, human; conditions: human, blood, oral, single 300 mg dose of Form B of Compound II
Recorded Metric: AUC(0-inf) (ng·h/mL)

Mol Smiles	Recorded Metric	Units Text	Numeric Readout
CC(C)N1CCN(c2ccc(Nc3ncc4cc5n(c4n3)C3(CCCCC3)CNC5=O)nc2)CC1	AUC(0-inf)	ng·h/mL	349

---

test: Plasma concentration versus time of Compound I and metabolite Compound III in patients dosed QD or BID with Form B of Compound II plus fulvestrant; format: in vivo, human; conditions: human, plasma, oral, 100 mg, Cohort 6, 100 mg BID of Form B, Day 22; read-out: Trough Compound I Concentration, Max
Recorded Metric: concentration at 22 day (ng/mL)

Mol Smiles	Recorded Metric	Numeric Readout
CC(C)N1CCN(c2ccc(Nc3ncc4cc5n(c4n3)C3(CCCCC3)CNC5=O)nc2)CC1	concentration at 22 day	10.9

---

experiment: Plasma concentration versus time of Compound I and metabolite Compound III in patients dosed QD or BID with Form B of Compound II plus fulvestrant; type: in vivo, human; conditions: human, plasma, oral, 500 mg, 500 mg QD of Form B, Day 1, 10.0 h, Mean; read-out: Compound I Concentration

Mol Smiles	Units Text	concentration at 10 h
CC(C)N1CCN(c2ccc(Nc3ncc4cc5n(c4n3)C3(CCCCC3)CNC5=O)nc2)CC1	ng/mL	32.2

---

assay: Plasma concentration versus time of Compound I and metabolite Compound III in patients dosed QD or BID with Form B of Compound II plus fulvestrant; assay type: in vivo, human; conditions: human, plasma, oral, 300 mg, 300 mg QD of Form B, Day 1, 10.0 h, Median; read-out: Compound I Concentration

Mol Smiles	Units Text	concentration at 10 h
CC(C)N1CCN(c2ccc(Nc3ncc4cc5n(c4n3)C3(CCCCC3)CNC5=O)nc2)CC1	ng/mL	18.1

---

test: Noncompartmental pharmacokinetic parameters (Cmax, Tmax, AUC, Racc) in QD and BID cohorts of Form B; format: in vivo, human; details: human, plasma, oral, 150 mg, Compound I; 150 mg BID of Form B; Cohort 7; Day 29; read-out: AUClast (Mean)
Recorded Metric: AUC(0-t) (ng·h/mL)

Mol Smiles	Numeric Readout
CC(C)N1CCN(c2ccc(Nc3ncc4cc5n(c4n3)C3(CCCCC3)CNC5=O)nc2)CC1	455

---

assay: Plasma concentration versus time of Compound I and metabolite Compound III in patients dosed QD or BID with Form B of Compound II plus fulvestrant; format: in vivo, human; details: human, plasma, oral, 200 mg, 200 mg BID of Form B, Day 1, 3.0 h, Mean; read-out: Compound I Concentration
Recorded Metric: concentration at 3 h (ng/mL)

Mol Smiles	Units Text	Numeric Readout
CC(C)N1CCN(c2ccc(Nc3ncc4cc5n(c4n3)C3(CCCCC3)CNC5=O)nc2)CC1	ng/mL	12.8
